Quick list: Plant response rating, B. signalgrass per entry.
- Test system: surinam grass
- testProtocol: Test B pre/postemergence surinam grass
- Type: in vivo, Brachiaria decumbens
- conditionSummary: Rate 500 g/ha, Postemergence; scale 0 to 10, 0 no effect, 10 complete control
attributeMeasured: Plant response rating, B. signalgrass

[
  {
    "molecule": "CC1CC1n1c(=O)on(C(=O)N(c2ccc(F)cc2)C(C)C)c1=O (stereo not drawn) [Compound 371]",
    "system": "surinam grass",
    "attributeMeasured": "Plant response rating, B. signalgrass",
    "readoutNumber": 6
  },
  {
    "molecule": "CC(C)N(C(=O)n1oc(=O)n(C)c1=O)c1ccc(F)cc1F [Compound 368]",
    "system": "surinam grass",
    "attributeMeasured": "Plant response rating, B. signalgrass",
    "readoutNumber": 7
  },
  {
    "molecule": "CC(C)N(C(=O)n1oc(=O)n(C2CC3CCC2C3)c1=O)c1ccc(F)cc1 (stereo not drawn) [Compound 327]",
    "system": "surinam grass",
    "attributeMeasured": "Plant response rating, B. signalgrass",
    "readoutNumber": 0
  },
  {
    "molecule": "CC1CC1n1c(=O)on(C(=O)N(c2ccc(F)cc2F)C(C)C)c1=O (stereo not drawn) [Compound 372]",
    "system": "surinam grass",
    "attributeMeasured": "Plant response rating, B. signalgrass",
    "readoutNumber": 7
  },
  {
    "molecule": "CC(C)N(C(=O)n1oc(=O)n(N2CCOCC2)c1=O)c1ccc(F)cc1 [Compound 385]",
    "system": "surinam grass",
    "attributeMeasured": "Plant response rating, B. signalgrass",
    "readoutNumber": 8
  },
  {
    "molecule": "CCC(CC)n1c(=O)on(C(=O)N(c2ccc(F)cc2)C(C)C)c1=O [Compound 358]",
    "system": "surinam grass",
    "attributeMeasured": "Plant response rating, B. signalgrass",
    "readoutNumber": 2
  }
]

====

- Test system: wild oat
- testProtocol: Test B pre/postemergence wild oat
- Assay type: in vivo, Avena fatua
- conditionSummary: Rate 62 g/ha, Postemergence; scale 0 to 10 (0 no effect, 10 complete control)
Quick list: Wild oats plant response rating per entry.

[
  {
    "compound": "CC1Cc2cccc(-n3c(=O)on(C(=O)N(c4ccc(F)cc4)C(C)C)c3=O)c2O1 (stereo not shown)",
    "system": "wild oat",
    "Wild oats plant response rating": 0
  },
  {
    "compound": "CC(C)N(C(=O)n1oc(=O)n(COC(=O)C(C)(C)C)c1=O)c1ccc(F)cc1",
    "system": "wild oat",
    "Wild oats plant response rating": 0
  },
  {
    "compound": "CC(C)N(C(=O)n1oc(=O)n(CCCCF)c1=O)c1ccc(F)cc1",
    "system": "wild oat",
    "Wild oats plant response rating": 0
  },
  {
    "compound": "CCc1cccc(CC)c1-n1c(=O)on(C(=O)N(c2ccc(F)cc2)C(C)C)c1=O",
    "system": "wild oat",
    "Wild oats plant response rating": 0
  }
]

====

- Tested on: crabgrass
- testProtocol: Test B pre/postemergence crabgrass
- Assay type: in vivo, Digitaria sanguinalis
- conditionSummary: Postemergence, Rate 125 g/ha; scale 0 to 10, 0 is no effect, 10 is complete control

[
  {
    "molecule": "CC(C)N(C(=O)n1oc(=O)n(C2CC3CCC2C3)c1=O)c1ccc(F)cc1 (centres unmarked)",
    "system": "crabgrass",
    "Plant response rating, Crabgrass": 0
  },
  {
    "molecule": "CC(C)Cn1c(=O)on(C(=O)N(c2ccccc2)C(C)C)c1=O",
    "system": "crabgrass",
    "Plant response rating, Crabgrass": 4
  },
  {
    "molecule": "CC(C)N(C(=O)n1oc(=O)n(N2C(C)CCCC2C)c1=O)c1ccc(F)cc1F (centres unmarked)",
    "system": "crabgrass",
    "Plant response rating, Crabgrass": 1
  },
  {
    "molecule": "CC(C)N(C(=O)n1oc(=O)n(C)c1=O)c1ccc(F)cc1F",
    "system": "crabgrass",
    "Plant response rating, Crabgrass": 8
  },
  {
    "molecule": "CC1CC1n1c(=O)on(C(=O)N(c2ccccc2)C(C)C)c1=O (centres unmarked)",
    "system": "crabgrass",
    "Plant response rating, Crabgrass": 7
  },
  {
    "molecule": "CC(C)N(C(=O)n1oc(=O)n(C2(C)CC2)c1=O)c1ccc(Cl)cc1",
    "system": "crabgrass",
    "Plant response rating, Crabgrass": 2
  },
  {
    "molecule": "CC(C)N(C(=O)n1oc(=O)n(CC2CCCO2)c1=O)c1ccc(F)cc1 (centres unmarked)",
    "system": "crabgrass",
    "Plant response rating, Crabgrass": 1
  },
  {
    "molecule": "CC(C)N(C(=O)n1oc(=O)n(CC#N)c1=O)c1ccc(F)cc1",
    "system": "crabgrass",
    "Plant response rating, Crabgrass": 2
  }
]
